- System: SNB-19
- test protocol: NCI tumour cell line growth inhibition, 48 h
Active and inactive are the calls of the source. Rule as the data show it: active = GI50 up to about 1.1 µM and inactive = higher.
This section presents molecules with their documented GI50 values.

Record excerpt, results attached:
{"molecule": "N#CC(C/C=C/c1ccccc1)NNC(=O)c1c(Cl)c(Cl)c(Cl)c(Cl)c1-c1nc2cc(C(=O)c3ccccc3)ccc2[nH]1 (stereo not given)", "test target": "SNB-19", "reported metric": "GI50", "reported value": "14.8 µM (inactive)"}
{"molecule": "Cc1c2cc[n+](C)cc2c(C)c2c1[nH]c1ccc(OCC(F)(F)F)cc12", "test target": "SNB-19", "reported metric": "GI50", "reported value": "0.718 µM (active)"}

Could you now consider this next molecule?
Query CCc1n[nH]c(=O)n1/N=C/c1c(O)ccc2ccccc12 yields GI50 of > 100 µM (inactive)

====

- System: COLO 205
- test protocol: NCI tumour cell line growth inhibition, 48 h
Activity calls are given as the source filed them. Rule as the data show it: active = GI50 up to about 1.1 µM and inactive = higher.
Choose one outcome from this list and give only that: True (active), False (inactive)

{"compound": "C1=N\\CCNCCNCC/N=C\\c2ccc(cc2)OCc2cccc(n2)COc2ccc/1cc2", "discrete label": "False"}

Please share the test call associated with O=C(c1ccc(Cl)cc1)N(C(=S)OCCOc1ccccc1)c1ccccc1 . False

Please share the test call associated with CC1OC(O[C@H]2/C=C/C=C/C=C/C=C/C=C/C=C/C=C/[C@H](C)[C@@H](O)[C@@H](C)[C@H](C)OC(=O)C[C@H](O)C[C@H](O)CC[C@@H](O)[C@H](O)C[C@H](O)C[C@]3(O)C[C@H](O)[C@@H](C(=O)O)[C@H](C2)O3)C(O)C(N)C1O (some centres not stated) . False

Please share the test call associated with Cc1cc(=O)oc2cc(OS(C)(=O)=O)ccc12 . False

Please share the test call associated with O=C(Nc1c(Cl)cc([N+](=O)[O-])cc1Cl)C(=O)C(C(=O)c1ccncc1)C1OC(=O)c2ccccc21 (configuration not stated) . False

Please share the test call associated with CCOC(=O)C(=CN1CCNC1=S)C(=O)OCC . False

Please share the test call associated with CCOc1ccc2c(C)cc(=O)oc2c1 . False

====

- System: SK-MEL-2
- test protocol: NCI tumour cell line growth inhibition, 48 h
Activity calls are given as the source filed them. Cut-off read from the data, not from the text of the source: active = GI50 up to about 1.1 µM and inactive = higher.
reported metric: GI50

{"compound": "COC1=CC(=O)C2(C=C1OC)OC[C@H]1Oc3c(ccc4c3C=CC(C)(C)O4)C(=O)[C@H]12 (some centres undefined)", "reported metric": "GI50", "reported value": "45.2 µM (inactive)"}
{"compound": "N=C(N)N/N=C/c1c(-c2cc([N+](=O)[O-])c(Cl)cc2Cl)nc2n1CCS2", "reported metric": "GI50", "reported value": "3.13 µM (inactive)"}
{"compound": "C=CCN1C(=O)CNC1=S", "reported metric": "GI50", "reported value": "> 100 µM (inactive)"}
{"compound": "CCN(CC)CC1CCCCN1CC(=O)N1c2ccccc2NC(=O)c2ccccc21 (centres undefined)", "reported metric": "GI50", "reported value": "> 100 µM (inactive)"}
{"compound": "CC1CC(C[N+](=O)[O-])CC2(C1)OCCO2 (centres undefined)", "reported metric": "GI50", "reported value": "> 100 µM (inactive)"}
{"compound": "O=C1[C@@H]2C(c3ccccc3Br)=NO[C@@H]2C(=O)N1c1ccc(Cc2ccc(N3C(=O)[C@H]4C(c5ccccc5Br)=NO[C@H]4C3=O)cc2)cc1", "reported metric": "GI50", "reported value": "> 100 µM (inactive)"}
{"compound": "COc1ccc(/C=C/C(=O)c2nc3ccccc3[nH]2)cc1", "reported metric": "GI50", "reported value": "28.6 µM (inactive)"}
{"compound": "O=c1[nH]c2[nH]c(-c3ccc(Br)cc3)cc2c2ccccc12", "reported metric": "GI50", "reported value": "> 100 µM (inactive)"}

Could you now consider this next compound?
Query O=c1[nH]c2cc([N+](=O)[O-])c(Nc3c4ccccc4nc4ccccc34)c([N+](=O)[O-])c2[nH]1 yields GI50 of 2.72 µM (inactive)

====

This section presents molecules with their documented GI50 values.
- System: HCC 2998
- test protocol: NCI tumour cell line growth inhibition, 48 h
Activity calls are given as the source filed them. Cut-off read from the data, not from the text of the source: active = GI50 up to about 1.1 µM and inactive = higher.

Record excerpt, results attached:
{"molecule": "N/C(=N\\N/C=C1\\C=Nc2cc(C(F)(F)F)ccc2C1=O)NO", "GI50": "> 10 µM (inactive)"}
{"molecule": "COc1c(-c2ccccc2)oc2c(CP(=O)(OC)OC)cccc2c1=O", "GI50": "> 100 µM (inactive)"}
{"molecule": "Cc1ccc(S(=O)(=O)N/N=C2\\CCCCCCCCCCC2CN(C)C)cc1 (stereo not given)", "GI50": "8.43 µM (inactive)"}
{"molecule": "Cc1cc2c(c(/C=N/c3ccc(N(C)C)cc3)c1)OC1(C=C2)Oc2ccccc2C(=O)N1C (stereo not given)", "GI50": "16.6 µM (inactive)"}

Could you now consider this next molecule?
Query COC(=O)NCCc1n[nH]c2c1C(=O)C=C(OC)C2=O yields GI50 of > 100 µM (inactive)

====

- Test system: CAKI-1
- test protocol: NCI tumour cell line growth inhibition, 48 h
The source made the active and inactive calls. Rule as the data show it: active = GI50 up to about 1.1 µM and inactive = higher.
Choose one outcome from this list and give only that: active, inactive

{"compound": "COC(=O)C1C=CCON2CCc3c(n(S(=O)(=O)c4ccccc4)c4ccccc34)C12 (stereo not given)", "discrete label": "inactive"}
{"compound": "Nc1ccc2ccc(N3CCNCC3)nc2n1", "discrete label": "inactive"}
{"compound": "O=C(c1ccc(Cl)cc1)N(C(=S)OCCOc1ccccc1)c1ccccc1", "discrete label": "inactive"}
{"compound": "CN1CN(c2ccccc2)C2(CCN(CCCSc3ccccc3NC(=O)/C=C/c3ccccc3)CC2)C1=O", "discrete label": "inactive"}

Please share the test call associated with O=[N+]([O-])c1cc2oc(CSc3ccccc3)nc2cc1Cl . inactive

Please share the test call associated with O=C(Nc1c(Cl)cc([N+](=O)[O-])cc1Cl)C(=O)C(C(=O)c1ccncc1)C1OC(=O)c2ccccc21 (stereo not given) . inactive

Please share the test call associated with COc1ccc(-c2nc(SCC(=O)N/N=C/c3ccc(N(C)C)cc3)[nH]c2-c2ccc(OC)cc2)cc1 . inactive

====

Listed here: compounds with reported GI50 for HCT-15.
# value in µM; strip the unit string

{"smiles string": "C[n+]1c2ccccc2n2c3ccccc3c(NCCCN3CCOCC3)c(C#N)c21", "unit of measurement": "µM", "GI50": 4.65}

Could you now consider this next compound?
CC1=CC=C2c3ccccc3C=CN2C(=O)C1 on HCT-15 gives GI50 = 45.9

====

- System: UACC-257
- test protocol: NCI tumour cell line growth inhibition, 48 h
Activity calls are given as the source filed them. Rule as the data show it: active = GI50 up to about 1.1 µM and inactive = higher.
Choose one outcome from this list and give only that: active, inactive

{"compound": "O=C(C(=O)n1ncc(Cl)c(Cl)c1=O)n1ncc(Cl)c(Cl)c1=O", "discrete label": "inactive"}
{"compound": "FC(F)(F)c1cc(N(C2c3ccccc3C=Cc3ccccc32)P(Cl)Cl)cc(C(F)(F)F)c1", "discrete label": "inactive"}
{"compound": "Cc1cc([N+](=O)[O-])c(C)c2c1[nH]c1ccc(O)cc12", "discrete label": "inactive"}
{"compound": "Cn1c(=O)c(C#N)c(O)c2cc3ccccc3nc21", "discrete label": "inactive"}
{"compound": "CC(=O)c1csc2c1C(=O)c1scc(C(C)=O)c1C2=O", "discrete label": "active"}

Please share the test call associated with COc1ccc(-c2coc3cc(O)ccc3c2=O)cc1 [FORMONONETIN] . inactive

Please share the test call associated with O=C(/C=C\c1ccccc1)Oc1ccc(/C=C2\CCCCC2=O)cc1 . inactive

Please share the test call associated with COc1ccc2cc3c4cc5c(cc4cc[n+]3cc2c1OC)OCO5 . inactive

====

This section presents compounds with their documented GI50 values.
- Test system: Malme-3M
- test protocol: NCI tumour cell line growth inhibition, 48 h
Active and inactive are the calls of the source. No stated cut-off is given here; in the data, active = GI50 up to about 1.1 µM and inactive = higher.

{"compound": "CN1CN(c2ccccc2)C2(CCN(CCCSc3ccccc3NC(=O)/C=C/c3ccccc3)CC2)C1=O", "GI50": "2.15 µM (inactive)"}
{"compound": "COC(=O)NCCc1n[nH]c2c1C(=O)C=C(Nc1ccccc1)C2=O", "GI50": "12.7 µM (inactive)"}
{"compound": "O=C1[C@@H]2C(c3ccccc3Br)=NO[C@@H]2C(=O)N1c1ccc(Cc2ccc(N3C(=O)[C@H]4C(c5ccccc5Br)=NO[C@H]4C3=O)cc2)cc1", "GI50": "> 100 µM (inactive)"}
{"compound": "COc1ccc(/C=C/C(=O)c2nc3ccccc3[nH]2)cc1", "GI50": "19 µM (inactive)"}

Query CCO[C@@]1(COCc2ccccc2)OC(=O)C[C@@H]1N1C(=O)OC[C@@H]1c1ccccc1 yields GI50 of > 100 µM (inactive)

Query C1=N\CCNCCNCC/N=C\c2ccc(cc2)OCc2cccc(n2)COc2ccc/1cc2 yields GI50 of > 100 µM (inactive)

Query O=C(OCCOC(=O)c1ccc2c(c1)C1(SCCS1)c1ccccc1-2)c1ccc2c(c1)C1(SCCS1)c1ccccc1-2 yields GI50 of > 100 µM (inactive)

Query CC(=O)Nc1ccc2c(C(=O)O)c(C)c(O)nc2n1 yields GI50 of 95.7 µM (inactive)

Query Cc1ccc2c(=O)c(-c3nnc(NC4CCCCC4)s3)c[nH]c2n1 yields GI50 of > 100 µM (inactive)

Query CC1(C(=O)Nc2ccc3cc4ccccc4cc3c2)CC2(C)CC(C)(C1)C(O)NC2=O (stereo not given) yields GI50 of 57.3 µM (inactive)

Query O=Cc1c2c(cc3c1CC1(C3)Cc3cc4c(c(C=O)c3C1)CCC4)CCC2 yields GI50 of 27.5 µM (inactive)
